Test system: U251 CNS
EXPERIMENT NOTES: NCI tumour cell line growth inhibition, 48 h
Documented TGI across a set of compounds

smiles=COc1ccc(/C(C)=C(\c2ccc(Cl)cc2)c2ccc(OCCN3CCCCC3)cc2)cc1 recorded_metric=TGI assay_result="8.77 µM"
smiles=CCn1c(O)c(C=Nc2ccccc2)s/c1=N/Nc1ncc(CC(=O)Nc2ccccc2C)s1 recorded_metric=TGI assay_result="> 100 µM"
smiles=NS(=O)(=O)c1ccc(NC(=S)/N=C/c2c(O)c3ccccc3oc2=O)cc1 recorded_metric=TGI assay_result="> 100 µM"
smiles=C[C@]12CC[C@@H]3c4ccc(O)cc4CC[C@H]3[C@@H]1CC[C@@H]2NS(=O)(=O)c1ccc(Cl)cc1 recorded_metric=TGI assay_result="18.5 µM"
smiles=COc1nc(N)c(N=O)c(OCc2ccccc2)n1 recorded_metric=TGI assay_result="> 10 µM"

Notebook: Clc1cc(OC23CC4CC(CC(C4)C2)C3)nc(Cl)n1 , TGI read as > 100 µM

So for C1C[OH+]CC[OH+]CC[OH+]CC[OH+]CC[OH+]CC[OH+]1.[Cl-].[V] , the logged TGI turned out to be > 100 µM
